# System: HepG2
# TEST PROTOCOL: GSK_TCMDC: Percent inhibition of human HepG2 cell line. Test compounds present at 10uM.
# Format: functional
MEASURED QUANTITY: Inhibition

# annotated cases, reported Inhibition shown
{"columns": ["COMPOUND", "Inhibition"],
 "data": [
  ["CO/N=C(\\C)c1ccc2c(c1)CCN(CCC1CCC(NC(=O)c3cccc(-c4noc(C)n4)c3)CC1)CC2.Cl (centres undefined)", "42%"],
  ["CC(CN1CCN(C)CC1)C(=O)Nc1ccc(-c2cccc(-c3nc4ccccc4[nH]3)c2)cc1 (centres undefined)", "4%"],
  ["O=c1cc(NCCCNCc2cccc(OC(F)(F)F)c2)[nH]c2ccccc12", "0%"],
  ["CCn1c(-c2nonc2N)nc2c(-c3ccccc3)ncc(OCCCNCCCN3CCOCC3)c21.O=C(O)C(F)(F)F", "28%"],
  ["CCCN(CCC)S(=O)(=O)c1ccc(C(=O)N2CCC(C(=O)OCC)CC2)cc1", "26%"],
  ["CC1CCCC(C)N1C[C@@H](O)CNS(=O)(=O)c1cccc(C(F)(F)F)c1.Cl (some centres undefined)", "4%"],
  ["COc1ccc(N2C(=O)c3c(c4ccccc4n3C)C2c2ccccc2O)cc1 (centres undefined)", "32%"],
  ["O=C(NCc1ccccc1)C1Cc2c([nH]c3ccc(Br)cc23)C2(CCN(Cc3ccccc3)CC2)N1 (centres undefined)", "15%"]
]}

*Q* Give the reported Inhibition for "O=C(Cc1n[nH]c(=O)c2ccccc12)Nc1cccc(C(=O)Nc2cccc(C(F)(F)F)c2)c1" (system: HepG2).
*A* 0%
